Sourced from ChEMBL document CHEMBL4052703

Species: Homo sapiens
Assay: Increase in SMN2 mRNA expression in induced pluripotent stem cell derived from human GM03813 cells isolated from SMA patient homozygous for deletion of exons 7 and 8 in SMN1 gene and containing 3 SMN2 gene copies at 0.1 uM by PCR assay relative to untreated control
Square brackets hold non-standard residues; d marks the D form. Peptide text beside a SMILES is read from it. * marks the point of attachment. 1Nal = N[C@@H](Cc1cccc2ccccc12)C(=O)O; Asu = N[C@@H](CCCCCC(=O)O)C(=O)O; β3hL = CC(C)C[C@H](N)CC(=O)O; NHOH = ON*
Property name: fold change (FC)

Answered examples (5):
{"columns": ["Molecule", "fold change (FC)"],
 "data": [
  ["CC(C)C[C@H]1CC(=O)N[C@@H](CCCCN)C(=O)N[C@@H](CCCCCC(=O)O)C(=O)N[C@@H](Cc2cccc3ccccc23)C(=O)N1 (cyclo([Asu][1Nal][β3hL]K))", 1],
  ["CCC(=O)CCCCC[C@@H]1NC(=O)[C@H](CCCCNC(C)=O)NC(=O)C[C@H](CC(C)C)NC(=O)[C@H](Cc2c[nH]c3ccccc23)NC1=O", "1 to 1.5"],
  ["CCC(=O)CCCCC[C@@H]1NC(=O)[C@@H](C)n2nncc2[C@H](CC(C)C)NC(=O)[C@H](Cc2c[nH]c3ccccc23)NC1=O", 0.9],
  ["CC(C)C[C@H]1CC(=O)N[C@@H](Cc2ccccc2)C(=O)N[C@@H](CCCCCC(=O)NO)C(=O)N[C@@H](Cc2c[nH]c3ccccc23)C(=O)N1 (cyclo([Asu](NHOH)W[β3hL]F))", "1 to 1.5"],
  ["CC(C)C[C@H]1CC(=O)N[C@@H](C)C(=O)N[C@@H](CCCCCC(=O)NO)C(=O)N[C@@H](Cc2c[nH]c3ccccc23)C(=O)N1 (cyclo([Asu](NHOH)W[β3hL]A))", "1.4 to 2.2"]
]}

Consider the molecule CCC(=O)CCCCC[C@@H]1NC(=O)[C@@H]2CCCN2C(=O)C[C@H](CC(C)C)NC(=O)[C@H](Cc2c[nH]c3ccccc23)NC1=O and give its measured fold change (FC). 1 to 1.4

Which fold change (FC) is reported for this molecule? CC(C)C[C@H]1CC(=O)N[C@@H](C)C(=O)N[C@@H](CCCCCC(=O)C(F)(F)F)C(=O)N[C@@H](Cc2c[nH]c3ccccc23)C(=O)N1 1.2 to 1.3

Form field: reported fold change (FC) of CCC(=O)CCCCC[C@@H]1NC(=O)[C@H](Cc2ccccc2)NC(=O)C[C@H](CC(C)C)NC(=O)[C@H](Cc2c[nH]c3ccccc23)NC1=O 0.6 to 1

Query (molecule): CC(C)C[C@H]1CC(=O)N[C@@H](C)C(=O)N[C@@H](CCCCCC(=O)O)C(=O)N[C@@H](Cc2cccc3ccccc23)C(=O)N1 (cyclo([Asu][1Nal][β3hL]A)) ; field requested: fold change (FC) 1.1 to 1.6

====

Species on record: Homo sapiens
Experiment: Increase in SMN2 mRNA expression in induced pluripotent stem cell derived from human GM03813 cells isolated from SMA patient homozygous for deletion of exons 7 and 8 in SMN1 gene and containing 3 SMN2 gene copies at 1 uM by PCR assay relative to untreated control
Square brackets hold non-standard residues; d marks the D form. Peptide text beside a SMILES is read from it. * marks the point of attachment. 1Nal = N[C@@H](Cc1cccc2ccccc12)C(=O)O; Asu = N[C@@H](CCCCCC(=O)O)C(=O)O; β3hL = CC(C)C[C@H](N)CC(=O)O; Nva = CCC[C@H](N)C(=O)O; NHOH = ON*
Property name: fold change (FC)

Look at this compound and give its reported fold change (FC). CCC(=O)CCCCC[C@@H]1NC(=O)[C@H](C)NC(=O)C[C@H](CC(C)C)NC(=O)[C@H](Cc2cccc3ccccc23)NC1=O 0.6 to 0.8

What value of measured fold change (FC) is listed for CCC(=O)CCCCC[C@@H]1NC(=O)[C@@H]2CCCN2C(=O)C[C@H](CC(C)C)NC(=O)[C@H](Cc2c[nH]c3ccccc23)NC1=O ? 1.2 to 2

Which fold change (FC) reading was recorded for the compound CCC(=O)CCCCC[C@@H]1NC(=O)[C@H](Cc2ccccc2)NC(=O)C[C@H](CC(C)C)NC(=O)[C@H](Cc2c[nH]c3ccccc23)NC1=O ? 0.8 to 1.4

What value of measured fold change (FC) is listed for CC(C)C[C@H]1CC(=O)N[C@@H](CCCCN)C(=O)N[C@@H](CCCCCC(=O)O)C(=O)N[C@@H](Cc2cccc3ccccc23)C(=O)N1 (cyclo([Asu][1Nal][β3hL]K)) ? 0.6 to 1.1

Entry CC(C)C[C@H]1CC(=O)N[C@@H](Cc2ccccc2)C(=O)N[C@@H](CCCCCC(=O)NO)C(=O)N[C@@H](Cc2c[nH]c3ccccc23)C(=O)N1 (cyclo([Asu](NHOH)W[β3hL]F)) has what fold change (FC)? 2.7 to 3.6

Requested read-out: fold change (FC). Entry: CC(C)C[C@H]1CC(=O)N[C@@H](C)C(=O)N[C@@H](CCCCCC(=O)O)C(=O)N[C@@H](Cc2cccc3ccccc23)C(=O)N1 (cyclo([Asu][1Nal][β3hL]A)) 1.4 to 1.5

Consider the compound shown here: CCC[C@@H]1NC(=O)[C@H](C)NC(=O)C[C@H](CC(C)C)NC(=O)[C@H](Cc2c[nH]c3ccccc23)NC1=O (cyclo(A[Nva]W[β3hL])) What is its recorded fold change (FC)? 0.7 to 0.8
